Observed pKi values for 5-hydroxytryptamine receptor 1A (Mus musculus) are listed in what follows.
pKi: −log10 of the molar value.
reported.endpoint: pKi

>  <smiles.record>
O=C1c2ccccc2S(=O)(=O)N1C[C@H]1C[C@@H]1CN1CCN(c2ncccn2)CC1

>  <pKi>
8.06

$$$$

[1] O=C1c2ccccc2S(=O)(=O)N1C[C@@H]1C[C@@H]1CN1CCN(c2ncccn2)CC1
[2] O=C1c2ccccc2S(=O)(=O)N1CCCCN1CCN(c2ncccn2)CC1
Lower value for measured pKi? Options: 1 , 2 Respond using the label that marks the chosen record.
1
(1: 7.36, 2: 7.92)
